Data credit: patent US20240067651A1

- ASSAY_PROCEDURE: Plasma Stability
- Assay type: in vitro ADME, human
- EXPERIMENTAL_PARAMETERS: % remaining at 1 h; human plasma, 1 μM, 37° C.
Binary call on human Plasma stability with cut-off 80%: strictly below means 1, and equality or higher means 0.

| COMPOUND | LABEL |
| --- | --- |
| CC(C)OCCn1c(=S)n2c(=O)c3c1ccn3COC(=O)C(C)(C)CCCCC(C)(C)C(=O)OC2 [Example 118] | 1 |
| CC(C)OCCn1c(=S)[nH]c(=O)c2c1ccn2C(=O)NC(C)(C)C [Example 229] | 0 |
| CC(C)OCCn1c(=S)n(COC(=O)C(C)(C)C)c(=O)c2c1ccn2COC(=O)C(C)(C)C [Example 143] | 1 |
| Cc1ccc(S(=O)(=O)n2ccc3c2c(=O)[nH]c(=S)n3CCOC(C)C)cc1C [Example 75] | 0 |
| CC(C)OCCn1c(=S)[nH]c(=O)c2c1ccn2COC(=O)CCCCNC(=O)[C@@H](N)C(C)C [Example 12] | 1 |
| COC(=O)[C@H](CCCCNC(=O)[C@@H](N)C(C)C)NC(=O)OCn1ccc2c1c(=O)[nH]c(=S)n2CCOC(C)C.O=C(O)C(F)(F)F [Example 114] | 0 |

* * *

- ASSAY_PROCEDURE: Plasma Stability
- Type: in vitro ADME, human
- EXPERIMENTAL_PARAMETERS: % @ 1 h (remaining) in human plasma
human Plasma stability overview

| MOLECULE | UNIT_INFO | human Plasma stability |
| --- | --- | --- |
| CC(C)OCCn1c(SCOC(=O)N(C)C(C)(C)C)nc(=O)c2c1ccn2COC(=O)N(C)C(C)(C)C.O=C(O)C(F)(F)F [Example 168] | % @ 1 h | 88 |
| CC(C)OCCn1c(=S)[nH]c(=O)c2c1ccn2COC(=O)c1ccccc1.O=C(O)C(F)(F)F [Example 157] | % @ 1 h | 0 |
| CCN(C)C(=O)OCn1ccc2c1c(=O)nc(SCOC(=O)N(C)C(C)C)n2CCOC(C)C.O=C(O)C(F)(F)F [Example 170] | % @ 1 h | 99 |

* * *

- ASSAY_PROCEDURE: Stability in Simulated Intestinal Fluid (SIF)
- Format: in vitro ADME
- EXPERIMENTAL_PARAMETERS: % remaining @ 1 h
Binary call on SIF with cut-off 30 % @ 1 h: strictly below means Y, and equality or higher means N.

| SMILES_TEXT | LABEL |
| --- | --- |
| CC(C)OCCn1c(SCOC(=O)[C@H](N)Cc2ccccc2)nc(=O)c2c1ccn2COC(=O)[C@H](N)Cc1ccccc1.O=C(O)C(F)(F)F.O=C(O)C(F)(F)F | Y |
| CC(C)OCCn1c(=S)[nH]c(=O)c2c1ccn2COC(=O)[C@@H](N)Cc1ccccc1.O=C(O)C(F)(F)F | N |
| CC(C)OCCn1c(SCOC(=O)[C@H](NC(=O)OC(C)(C)C)C(C)C)nc(=O)c2c1ccn2COC(=O)[C@H](NC(=O)OC(C)(C)C)C(C)C | Y |
| CC(C)OCCn1c(SCOC(=O)[C@@H](Cc2ccccc2)NC(=O)OC(C)(C)C)nc(=O)c2c1ccn2COC(=O)[C@@H](Cc1ccccc1)NC(=O)OC(C)(C)C | Y |
| CC(C)OCCn1c(=S)n(COC(=O)[C@@H](C)N)c(=O)c2c1ccn2COC(=O)[C@@H](C)N.O=C(O)C(F)(F)F.O=C(O)C(F)(F)F | Y |
| CC(C)OCCn1c(=S)[nH]c(=O)c2c1ccn2COC(=O)CCCCOC(=O)[C@@H](NC(=O)OC(C)(C)C)C(C)C | Y |
| CC(C)OCCn1c(=S)[nH]c(=O)c2c1ccn2COC(=O)[C@H](Cc1ccccc1)NC(=O)OC(C)(C)C | Y |
| CC(C)OCCn1c(=S)n(COC(=O)[C@H](Cc2ccccc2)NC(=O)OC(C)(C)C)c(=O)c2c1ccn2COC(=O)[C@H](Cc1ccccc1)NC(=O)OC(C)(C)C | N |
| CC(C)OCCn1c(SCOC(=O)[C@@H](N)Cc2ccccc2)nc(=O)c2c1ccn2COC(=O)[C@@H](N)Cc1ccccc1.O=C(O)C(F)(F)F.O=C(O)C(F)(F)F | N |
| CC(C)OCCn1c(=S)n(COC(=O)[C@H](N)Cc2ccccc2)c(=O)c2c1ccn2COC(=O)[C@H](N)Cc1ccccc1.O=C(O)C(F)(F)F.O=C(O)C(F)(F)F | N |
| CC(C)OCCn1c(=S)n(COC(=O)[C@@H](N)C(C)C)c(=O)c2c1ccn2COC(=O)[C@@H](N)C(C)C.O=C(O)C(F)(F)F.O=C(O)C(F)(F)F | Y |
| CC(C)OCCn1c(SCOC(=O)CCCCOC(=O)CNC(=O)OC(C)(C)C)nc(=O)c2c1ccn2COC(=O)CCCCOC(=O)CNC(=O)OC(C)(C)C | N |
| CC(C)OCCn1c(SCOC(=O)[C@@H](N)Cc2ccccc2)nc(=O)c2[nH]ccc21.O=C(O)C(F)(F)F | N |
| CC(C)OCCn1c(=S)[nH]c(=O)c2c1ccn2COC(=O)[C@@H](Cc1ccccc1)NC(=O)OC(C)(C)C | Y |
| CC(C)OCCn1c(=S)[nH]c(=O)c2c1ccn2COC(=O)[C@H](N)C(C)C | N |
| CC(C)OCCn1c(SCOC(=O)CCCCOC(=O)CN)nc(=O)c2c1ccn2COC(=O)CCCCOC(=O)CN.O=C(O)C(F)(F)F.O=C(O)C(F)(F)F | Y |
| CC(C)OCCn1c(=S)[nH]c(=O)c2c1ccn2COC(=O)[C@@H](C)N.O=C(O)C(F)(F)F | Y |
